Attribution: patent US8324282B2

# Test system: SW480 cells
# experiment.notes: Colony survival assay, SW480
# Assay type: cell-based, human
# experimental.conditions: Homo sapiens, SW480, 2 h, SW480; BCNU alone or after 6 mM MX 2 hr and/or BG; read-out: BCNU IC50
metric.name: IC50

INSERT INTO results (compound, observed) VALUES
  ('O=NN(CCCl)C(=O)NCCCl [BCNU, 1,3-bis(2-chloroethyl)-1-nitrosourea]', '27 to 29 µM');

* * *

# Tested on: HCT116 cells
# experiment.notes: Growth inhibition assay (MTT), HCT116
# Assay type: cell-based, human
# experimental.conditions: Homo sapiens, HCT-116; MMR deficient HCT116 cells; IUdR alone or with MX 6 mM
pIC50: −log10 of the molar value.
metric.name: pIC50

INSERT INTO results (entry_smiles, measurement_target, observed) VALUES
  ('O=c1[nH]c(=O)n([C@H]2C[C@H](O)[C@@H](CO)O2)cc1I', 'HCT116 cells', '< 4.22');
